Data provenance: patent US20220144956A1

assayed.target: human TGFßRII (antigen of the Octet experiments) (human, UniProt P37173 23-166)
Sequence (P37173 23-166): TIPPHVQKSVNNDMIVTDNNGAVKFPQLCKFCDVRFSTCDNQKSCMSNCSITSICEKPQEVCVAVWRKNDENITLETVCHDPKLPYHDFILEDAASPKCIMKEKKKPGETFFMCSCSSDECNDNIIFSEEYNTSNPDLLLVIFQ
Kindly state pKd for each of the entries shown.
One number for each entry, as −log10 of the molar value.

[
  {
    "binder": "XENP35105 H1.30 L1 (antibody, V domains shown) VH: QLQVQESGPGLVKPSETLSLTCTVSGGSISNSYFYWGWIRQPPGKGLEWIGSFYYGEKTYYNPSLKSRATISIDTSKSQFSLKLSSVTAADTAVYYCPRGPTMIRGVIDSWGQGTLVTVSS VL: EIVLTQSPATLSLSPGERATLSCRASQSVRSYLAWYQQKPGQAPRLLIYDASNRATGIPARFSGSGSGTDFTLTISSLEPEDFAVYYCQQRSNWPPTFGQGTKVEIK",
    "readout.type": "pKd",
    "value.observed": 7.81
  },
  {
    "binder": "XENP36180 H1.197 L1 (antibody, V domains shown) VH: QLQVQESGPGLVKPSETLSLTCTVSGGSISQSYFSWGWIRQPPGKGLEWIGSFYYGGKTYYNPSLKSRATISIDTSKNQFSLKLSSVTAADTAVYYCARGPTLIRGVIDSWGQGTLVTVSS VL: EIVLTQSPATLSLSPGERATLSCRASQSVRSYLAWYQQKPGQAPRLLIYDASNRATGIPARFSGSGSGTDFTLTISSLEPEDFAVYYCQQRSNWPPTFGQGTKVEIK",
    "readout.type": "pKd",
    "value.observed": 8.22
  }
]

Data request: Fill in: pKd of XENP36181 H1.198 L1 (antibody, V domains shown) VH: QLQVQESGPGLVKPSETLSLTCTVSGGSISQSYFSWGWIRQPPGKGLEWIGSFYYGGKTYYNPSLKSRATISIDTSKNQFSLKLSSVTAADTAVYYCARGPTTIRGVIDSWGQGTLVTVSS VL: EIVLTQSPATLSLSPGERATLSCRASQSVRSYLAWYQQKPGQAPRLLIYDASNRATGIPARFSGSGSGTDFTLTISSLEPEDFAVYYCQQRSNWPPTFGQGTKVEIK is ___
Data returned: 8.08
